# tested.on: native human MET on living human cells (human, UniProt P08581 25-1390)
# Sequence (P08581 25-1390): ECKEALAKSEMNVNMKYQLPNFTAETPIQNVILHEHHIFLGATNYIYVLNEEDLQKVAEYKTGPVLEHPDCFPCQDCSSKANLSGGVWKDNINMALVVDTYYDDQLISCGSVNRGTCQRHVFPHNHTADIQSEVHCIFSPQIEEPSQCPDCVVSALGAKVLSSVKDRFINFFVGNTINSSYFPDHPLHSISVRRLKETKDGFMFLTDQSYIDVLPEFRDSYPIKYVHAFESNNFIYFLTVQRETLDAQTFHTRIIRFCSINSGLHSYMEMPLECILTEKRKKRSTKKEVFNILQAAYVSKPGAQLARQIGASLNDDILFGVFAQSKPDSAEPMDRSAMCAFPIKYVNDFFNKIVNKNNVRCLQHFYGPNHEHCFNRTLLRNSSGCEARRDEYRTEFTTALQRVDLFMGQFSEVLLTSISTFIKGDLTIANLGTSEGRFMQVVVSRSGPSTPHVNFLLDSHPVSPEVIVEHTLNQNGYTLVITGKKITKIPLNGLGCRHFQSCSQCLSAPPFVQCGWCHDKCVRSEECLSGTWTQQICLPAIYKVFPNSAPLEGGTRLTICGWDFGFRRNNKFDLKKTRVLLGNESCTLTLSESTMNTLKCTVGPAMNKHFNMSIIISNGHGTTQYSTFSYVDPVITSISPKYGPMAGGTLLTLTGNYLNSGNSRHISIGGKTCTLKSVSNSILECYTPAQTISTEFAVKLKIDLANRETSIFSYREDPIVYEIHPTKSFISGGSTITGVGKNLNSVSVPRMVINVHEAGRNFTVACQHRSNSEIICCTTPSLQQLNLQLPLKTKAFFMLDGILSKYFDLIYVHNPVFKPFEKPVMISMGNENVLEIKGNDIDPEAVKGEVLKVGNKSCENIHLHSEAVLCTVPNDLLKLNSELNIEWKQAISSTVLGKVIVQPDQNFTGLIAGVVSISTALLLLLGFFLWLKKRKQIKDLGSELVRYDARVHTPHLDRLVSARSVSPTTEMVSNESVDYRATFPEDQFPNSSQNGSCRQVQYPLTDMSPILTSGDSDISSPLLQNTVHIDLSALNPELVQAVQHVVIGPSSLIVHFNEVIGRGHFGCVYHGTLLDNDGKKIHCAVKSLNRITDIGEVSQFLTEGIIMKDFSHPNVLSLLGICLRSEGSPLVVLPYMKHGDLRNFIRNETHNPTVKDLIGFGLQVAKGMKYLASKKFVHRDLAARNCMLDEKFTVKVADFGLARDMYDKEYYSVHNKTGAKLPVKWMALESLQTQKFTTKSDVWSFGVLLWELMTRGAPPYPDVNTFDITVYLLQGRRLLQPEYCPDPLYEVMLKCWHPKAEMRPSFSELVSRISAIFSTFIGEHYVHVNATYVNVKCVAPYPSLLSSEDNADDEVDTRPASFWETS
# assay.procedure: cell-based or functional assay
cell scattering score, HPAF-II, 1.000 nM reference
Give your result as the value with the unit written after it.

binder	cell scattering score, HPAF-II, 1.000 nM
chimeric llama-human IgG1 mAb 74C8 (antibody, V domains shown) VH: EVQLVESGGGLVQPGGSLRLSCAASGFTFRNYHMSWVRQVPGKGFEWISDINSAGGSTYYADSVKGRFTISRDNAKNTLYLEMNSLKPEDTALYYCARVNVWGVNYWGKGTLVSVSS VL: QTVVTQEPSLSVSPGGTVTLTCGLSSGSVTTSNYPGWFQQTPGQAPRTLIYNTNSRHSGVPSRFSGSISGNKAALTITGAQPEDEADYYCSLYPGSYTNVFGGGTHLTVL	3 score 0-4

Supply reported cell scattering score, HPAF-II, 1.000 nM belonging to this binder: chimeric llama-human IgG1 mAb 71C3 (antibody, V domains shown) VH: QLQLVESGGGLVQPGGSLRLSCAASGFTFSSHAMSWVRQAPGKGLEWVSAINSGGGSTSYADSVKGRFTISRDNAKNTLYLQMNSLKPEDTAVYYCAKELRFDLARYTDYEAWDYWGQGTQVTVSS VL: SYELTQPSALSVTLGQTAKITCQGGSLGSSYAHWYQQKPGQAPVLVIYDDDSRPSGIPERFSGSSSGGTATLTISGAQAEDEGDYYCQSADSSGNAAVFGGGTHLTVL
3 score 0-4

Supply reported cell scattering score, HPAF-II, 1.000 nM belonging to this binder: chimeric llama-human IgG1 mAb 72F8 (antibody, V domains shown) VH: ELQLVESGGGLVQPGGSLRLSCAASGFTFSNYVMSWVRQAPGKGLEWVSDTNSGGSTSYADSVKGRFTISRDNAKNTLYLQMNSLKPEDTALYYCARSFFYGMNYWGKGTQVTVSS VL: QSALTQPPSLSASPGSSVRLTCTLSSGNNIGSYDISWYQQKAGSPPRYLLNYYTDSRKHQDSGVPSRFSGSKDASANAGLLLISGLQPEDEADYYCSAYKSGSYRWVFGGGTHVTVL
1 score 0-4
